Catalogue of variants with associated protein stability index
B1: RHOBTB3 (parent)
chain: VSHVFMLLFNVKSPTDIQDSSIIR

Variants of: B1
EXPERIMENT_NOTES: protein stability index of a GFP-peptide fusion (GPS, HEK-293T) (PSI 1-6); higher = more stable;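 also: lentivirally expressed fusions sorted by FACS into six bins by GFP to DsRed ratio, PSI derived from sequencing read proportions per bin multiplied by bin number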
CONDITION_DESCRIPTION: c terminus: a fixed tail appended
Number only, no unit.

>>> reported("VSHVFMLLFNVKSPTDIEDSSIIR [Q18E]")
2.79
>>> reported("VSHVFMLLQNVKSPTDIQDSSIIR [F9Q]")
1.5
>>> reported("VSHVFYLLFNVKSPTDIQDSSIIR [M6Y]")
3.18
>>> reported("VSHVFMLLFNVKSPTDIQDWSIIR [S20W]")
3.16
>>> reported("VSHVFMLLPNVKSPTDIQDSSIIR [F9P]")
1.55

Given VSHVFMLLFNVKSPTDIQDSSIWR [I23W] , respond with its protein stability index.
2.86
